Data provenance: ChEMBL document CHEMBL4152200

Could you please report measured CC50 for the items listed next?
system: MT4; test: Cytotoxicity against human MT4 cells assessed as decrease in cell viability after 5 days by MTT assay; type: cell-based; conditions: mt4, 120 h
Give the number; µM is assumed, so skip it.

Q. CC50 lookup needed for "Cc1cc(C)c(Oc2cc(Nc3ccc(C#N)cc3)ncc2C(=O)NCc2cn(Cc3cccc(Cl)c3)nn2)c(C)c1" , thanks.
A. 187

Q. CC50 lookup needed for "CC(=O)Cn1cc(CNC(=O)c2cnc(Nc3ccc(C#N)cc3)cc2Oc2c(C)cc(C)cc2C)nn1" , thanks.
A. 19.4

Q. CC50 lookup needed for "Cc1cc(C)c(Oc2cc(Nc3ccc(C#N)cc3)ncc2C(=O)NCc2cn(CCCO)nn2)c(C)c1" , thanks.
A. 25.2

Q. CC50 lookup needed for "CCOC(=O)Cn1cc(CNC(=O)c2cnc(Nc3ccc(C#N)cc3)cc2Oc2c(C)cc(C)cc2C)nn1" , thanks.
A. 9.53

Q. CC50 lookup needed for "Cc1cc(C)c(Oc2cc(Nc3ccc(C#N)cc3)ncc2C(=O)NCc2cn(CC(N)=O)nn2)c(C)c1" , thanks.
A. 24

Q. CC50 lookup needed for "CCOC(=O)CCn1cc(CNC(=O)c2cnc(Nc3ccc(C#N)cc3)cc2Oc2c(C)cc(C)cc2C)nn1" , thanks.
A. 21.5

Q. CC50 lookup needed for "Cc1cccc(Cn2cc(CNC(=O)c3cnc(Nc4ccc(C#N)cc4)cc3Oc3c(C)cc(C)cc3C)nn2)c1" , thanks.
A. 114
